Hello, the source for this data is patent US5317014A, in case you need it.

Molecular target: NK3 receptor (Rattus norvegicus, UniProt P16177)
Construct: three smooth muscle preparations were used; from tissue; host or cells: rat portal vein (isolated smooth muscle)
Sequence (P16177 whole entry): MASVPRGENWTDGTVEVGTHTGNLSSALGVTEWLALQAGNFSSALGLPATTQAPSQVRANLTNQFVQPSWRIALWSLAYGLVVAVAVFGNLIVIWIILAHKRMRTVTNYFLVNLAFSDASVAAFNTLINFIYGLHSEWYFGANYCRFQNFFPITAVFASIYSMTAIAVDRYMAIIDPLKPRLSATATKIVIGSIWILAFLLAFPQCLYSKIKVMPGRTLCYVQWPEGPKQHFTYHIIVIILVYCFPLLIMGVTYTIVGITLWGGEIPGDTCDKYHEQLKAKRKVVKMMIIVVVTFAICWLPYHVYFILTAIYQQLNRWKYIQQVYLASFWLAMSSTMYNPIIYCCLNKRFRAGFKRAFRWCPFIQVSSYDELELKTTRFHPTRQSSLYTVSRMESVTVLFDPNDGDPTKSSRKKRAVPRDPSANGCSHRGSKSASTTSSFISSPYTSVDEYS
Assay: Bio assay on isolated smooth muscle: rat portal vein
Assay type: cell-based
Settings: antagonistic power, read-out: pA2 NK3 (converted)
Quick reference for Kb among some compounds
Give just the numeric value; µM need not be written.

The cases that follow already have their Kb on record.
Query: Supply Kb value. Item: CN(Cc1ccccc1)C(=O)[C@H](Cc1ccccc1)NC(=O)[C@@H](Cc1cn(C=O)c2ccccc12)NC(=O)C[C@H]1NC(=O)[C@@H]2Cc3ccccc3CN2C1=O [Example 6]
Reply: 13.5

Query: Read off the recorded Kb for CN(Cc1ccccc1)C(=O)[C@H](Cc1ccccc1)NC(=O)C[C@@H]1NC(=O)[C@@H]2Cc3ccccc3CN2C1=O [Example 16, Cyclo(Tic--Asp)--Phe--N(CH3)CH2 C6 H5]
Reply: 19.1

Query: Determine its reported Kb: CN(Cc1ccccc1)C(=O)[C@H](Cc1ccccc1)NC(=O)[C@@H](Cc1cn(C=O)c2ccccc12)NC(=O)C[C@H]1NC(=O)[C@H]2C3CCC(CC3)N2C1=O [Example 5]
Reply: 13.8

Query: Entry CN(Cc1ccccc1)C(=O)[C@H](Cc1ccccc1)NC(=O)[C@@H](Cc1cn(C=O)c2ccccc12)NC(=O)C[C@@H]1NC(=O)[C@@H]2C3CCC(CC3)N2C1=O [Example 1] needs its Kb filled in; supply it.
Reply: 13.8

Query: Please supply the value of reported Kb for the item CN(Cc1ccccc1)C(=O)[C@H](Cc1ccccc1)NC(=O)[C@@H](Cc1cn(C=O)c2ccccc12)NC(=O)C[C@@H]1NC(=O)[C@H](Cc2ccccc2)N(C)C1=O [Example 7]
Reply: 13.5

Continuing:
Query: Write down Kb measured for item CN(Cc1ccccc1)C(=O)[C@H](Cc1ccccc1)NC(=O)[C@@H]1C2CCC(CC2)N1C(=O)c1c[nH]c2ccccc12 [Example 31]
Reply: 9.12
